Multiple publications report pKi for 5-hydroxytryptamine receptor 4 (Cavia porcellus); what follows is a combined list.
pKi: −log10 of the molar value.
measured-property: pKi

C=CCN1CCC(COc2nc3ccsc3n3cccc23)CC1    8.06
CC(C)N1CCN(CCNC(=O)n2c(=O)n(C3CC3)c3ccccc32)CC1    8.17
CCCCN1CCN(CCNC(=O)n2c(=O)n(C3CC3)c3ccccc32)CC1    7.88
O=C1c2cccc3nc(Cl)cc(c23)C(=O)N1CCCN1CCCCC1    6.98
CCCCN1CCC(COC(=O)c2ccc(N)c(OCF)c2)CC1    9.48

A: CCCN1CCC(COC(=O)c2ccc(N)c(OC)c2)CC1
B: CCN(CC)CCCCOc1nc2ccsc2n2cccc12
Input: Compare pKi: is it lower for A or for B ? // return label of chosen record
Output: B
